subject of test: cyno IL-17A (cynomolgus monkey, UniProt A0A2K5TTB0 24-155)
Sequence (A0A2K5TTB0 entry or part of it): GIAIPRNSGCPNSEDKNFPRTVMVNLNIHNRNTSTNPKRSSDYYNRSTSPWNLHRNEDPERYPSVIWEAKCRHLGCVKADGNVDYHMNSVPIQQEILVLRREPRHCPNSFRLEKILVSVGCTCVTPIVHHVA
assay explanation: SPR Biacore, captured binder

>  <binder>
IL17-TN-K7-B6 (antibody, V domains shown, Fully human antibody) VH: EVQLVQSGAEVKKPGESLKISCKASGGSFRSYGISWVRQAPGQGLEWMGGITPILGTANYAQKFQGRVTITADESTTTAYMELSGLTSDDTAVYYCAREPNDFWNGYYTTHHFDYWGQGTPVTVSS VL: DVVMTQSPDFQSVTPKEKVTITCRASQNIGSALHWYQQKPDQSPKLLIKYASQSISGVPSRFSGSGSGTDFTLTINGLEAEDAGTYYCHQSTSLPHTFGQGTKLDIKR

>  <kon / M⁻¹ s⁻¹>
25300

$$$$
>  <binder>
IL17-B6-15 (antibody, V domains shown) VH: EVQLVQSGAEVKKPGESLKISCKASGGSFSGYGTSWVRQAPGQGLEWMGGITHFFGAVDYAQKFQGRVTITADESTTTAYMELSGLTSDDTAVYYCARDPNEFWNGYYATHDFDYWGQGTTVTVSS VL: EIVLTQSPDFQSVTPKEKVTITCRASQNIGAELHWYQQKPDQSPKLLIKYASHSISGVPSRFSGSGSGTDFTLTINGLEAEDAGTYYCHQTDRLPYSFGPGTKVDIK

>  <kon / M⁻¹ s⁻¹>
1.37e+07

$$$$
>  <binder>
IL17-B6-16 (antibody, V domains shown) VH: EVQLVQSGAEVKMPGSSLKISCKASGGSFRGYGISWVRQAPGQGLEWMGGITPFFGWADYAQKFQGRVTITADESTTTAYMELSGLTSDDTAVYYCARDPNEFWNGYYDTHHFDYWGQGTTVTVSS VL: EIVLTQSPDFQSVTPKEKVTITCRASQDIGSALHWYQQKPDQSPKLLIKYASHSVSGVPSRFSGSGSGTDFTLTINGLEAEDAGTYYCHQSDILPHTFGPGTKVDIK

>  <kon / M⁻¹ s⁻¹>
9.27e+06

$$$$
>  <binder>
IL17-B6-17 (antibody, V domains shown) VH: EVQLVQSGAEVKKPGSSVKVSCKASGGSFGGYGIGWVRQAPGQGLEWMGGITPFFGFADYAQKFQGRVTITADESTTTAYMELSGLTSDDTAVYYCARDPNEFWNGYYSTHDFDSWGQGTTVTVSS VL: EIVLTQSPDFQSVTPKEKVTITCRASQDIGSELHWYQQKPDQPPKLLIKYASHSTSGVPSRFSGSGSGTDFTLTINGLEAEDAGTYYCHQTDSLPYTFGPGTKVDIK

>  <kon / M⁻¹ s⁻¹>
1.02e+07

$$$$
>  <binder>
IL17-G9-M1 (antibody, V domains shown) VH: EVQLLESGGGVVQPGRSLRLSCAASGFIFSNYGMHWVRQAPGKGLEWVAVISYDGGYKYYADSVKGRFTISRDNSKNTLYLEMNSLRPEDTAVYYCAKLSLSGDYYYSYGFDGWGQGTTVTVSS VL: QSVLTQPPSASGTPGQTVSISCSGSKSNIGSHYVHWYQQVPGAAPKLLMYDFGQRPSGVPDRFSGSQSGTSASLAISGLQSEDEADYYCGTWDDWLGGYVFGTGTKVTVLG

>  <kon / M⁻¹ s⁻¹>
377000

$$$$
